Target: PLD (phospholipase D)
Construct: fused on or other part: N-terminal polyhistidine tag (pFastBac HTc) on either enzyme
Test: In vitro assay of PLD activity ([3H]-choline release from labelled PC)
Assay type: biochemical, human
Settings: Table 1, monocyclic thiazolidinones of Formula I; PLD isoform not stated; read-out: IC50
pIC50: −log10 of the molar value.
recorded.endpoint: pIC50

In the examples that follow, each entry is paired with its recorded pIC50.
[[record]]
structure_smiles_string = "O=C(O)CCCN1C(=O)/C(=C/c2ccc(-c3ccc(O)c(O)c3)o2)SC1=S"
reported_value = 5.80

[[record]]
structure_smiles_string = "O=C(O)c1ccc(-c2ccc(/C=C3\\SC(=S)N(Cc4cccs4)C3=O)s2)cc1"
reported_value = 5.30

[[record]]
structure_smiles_string = "O=C(O)CCCN1C(=O)/C(=C/c2ccc(-c3ccc(Cl)c(Cl)c3)o2)SC1=S"
reported_value = 6.40

[[record]]
structure_smiles_string = "O=C(O)c1ccc(-c2ccc(/C=C3\\SC(=S)N(Cc4ccccc4C(F)(F)F)C3=O)o2)cc1"
reported_value = 5.82


A = COC(=O)c1ccc(-c2ccc(/C=C3\SC(=S)N(CCCN4CCOCC4)C3=O)o2)cc1
B = O=C(O)CCN1C(=O)/C(=C/c2ccc(-c3ccccc3Cl)o2)SC1=S
C = O=C(O)c1ccc(-c2ccc(/C=C3\SC(=S)N(C4CCCCC4)C3=O)o2)cc1
D = CN(C)c1ccc(/C=C/C=C2\SC(=S)N(c3ccc(C(=O)O)cc3)C2=O)cc1
Request: Arrange items by their pIC50 values in increasing order. Please reply with the labels ordered as requested. Many thanks.
Result: D, A, B, C

====

Target: PLD (phospholipase D)
Construct: fused on or other part: N-terminal polyhistidine tag (pFastBac HTc) on either enzyme
Test: In vitro assay of PLD activity ([3H]-choline release from labelled PC)
Format: biochemical, human
Settings: Table 1, monocyclic thiazolidinones of Formula I; PLD isoform not stated; read-out: IC50
recorded.endpoint: IC50 (µM)

[[record]]
structure_smiles_string = "O=C(O)CN1C(=O)/C(=C\\c2ccc(-c3ccccc3)o2)SC1=S"
unit_of_measure = "µM"
reported_value = 4

[[record]]
structure_smiles_string = "O=C(O)c1ccc(-c2ccc(/C=C3\\SC(=S)N(c4cccc(C(F)(F)F)c4)C3=O)o2)cc1"
unit_of_measure = "µM"
reported_value = 1.4

[[record]]
structure_smiles_string = "O=C(O)c1ccc(-c2ccc(/C=C3\\SC(=S)N(c4cccc(F)c4)C3=O)o2)cc1"
unit_of_measure = "µM"
reported_value = 1.7

[[record]]
structure_smiles_string = "O=C(O)c1ccc(-c2ccc(/C=C3\\SC(=S)N(c4ccccc4)C3=O)o2)cc1"
unit_of_measure = "µM"
reported_value = 4


P = O=C(O)c1ccc(N2C(=O)/C(=C/c3cc4ccccc4o3)SC2=S)cc1
Q = O=C(O)c1ccc(N2C(=O)/C(=C/C=C/c3ccccc3)SC2=S)cc1
R = COC(=O)c1ccc(-c2ccc(/C=C3\SC(=S)N(Cc4ccccc4)C3=O)o2)cc1
Request: Put the items in sequence by IC50, from largest down. Please reply with the labels ordered as requested. Many thanks.
Result: R, Q, P

====

Target: PLD (phospholipase D)
Construct: fused on or other part: N-terminal polyhistidine tag (pFastBac HTc) on either enzyme
Assay: In vitro assay of PLD activity ([3H]-choline release from labelled PC)
Assay type: biochemical, human
Conditions: Table 1, monocyclic thiazolidinones of Formula I; PLD isoform not stated; read-out: IC50
recorded.endpoint: IC50 (nM)

In the examples that follow, each entry is paired with its recorded IC50.
[[record]]
structure_smiles_string = "C=CCN1C(=O)/C(=C\\c2ccc(-c3cccc(C(=O)O)c3)o2)SC1=S"
reported_value = 500

[[record]]
structure_smiles_string = "Cc1ccc(CN2C(=O)/C(=C/c3ccc(-c4ccc(S(N)(=O)=O)cc4)o3)SC2=S)cc1"
reported_value = 6000


1 = O=C(O)CN1C(=O)/C(=C\c2ccc(-c3cccc(Cl)c3)o2)SC1=S
2 = CCN1C(=O)/C(=C\c2ccc(-c3cccc(C(=O)O)c3)o2)SC1=S
Request: For this pair, 1 and 2 , which shows a numerically higher IC50? Give the label of your selection.
Result: 1
